- experimental_target: human cloned 5-HT2C receptor, expressed in CHO cells (Homo sapiens)
- Construct: expressed in transfected cells; host or cells: CHO cells
- Sequence (P28335 33-458): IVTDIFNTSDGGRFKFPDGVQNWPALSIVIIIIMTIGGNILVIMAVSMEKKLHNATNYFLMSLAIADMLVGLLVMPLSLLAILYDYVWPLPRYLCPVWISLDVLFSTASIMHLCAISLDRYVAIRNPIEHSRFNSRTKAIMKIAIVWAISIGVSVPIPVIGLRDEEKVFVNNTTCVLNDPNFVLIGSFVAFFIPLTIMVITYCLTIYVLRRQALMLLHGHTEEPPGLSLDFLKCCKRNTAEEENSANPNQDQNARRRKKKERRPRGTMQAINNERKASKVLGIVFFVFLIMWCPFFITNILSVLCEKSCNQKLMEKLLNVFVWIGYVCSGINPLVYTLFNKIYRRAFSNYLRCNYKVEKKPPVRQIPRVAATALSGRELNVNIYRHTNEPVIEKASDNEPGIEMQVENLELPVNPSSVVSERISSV
- procedure_summary: In vitro radioligand binding affinity for 5-HT2C receptor ([3H]mesulergine)
- experimental_conditions: human cloned 5-HT2C receptor in CHO cells, [3H]mesulergine; read-out: h-5HT2C (converted)
readout_kind: IC50 (nM)
Give a bare numeral; the unit nM is implied.

Incoming: Lab note: need IC50 with human cloned 5-HT2C receptor, expressed in CHO cells (Homo sapiens) for entry CN(C)CC1CO[C@@H]2c3cc(F)ccc3Cc3ccccc3[C@@H]12 (mixture of isomers) [compound 47] , please look it up.
Outgoing: 1580

Incoming: Lab note: need IC50 with human cloned 5-HT2C receptor, expressed in CHO cells (Homo sapiens) for entry Fc1ccc2c(c1)[C@@H]1[C@H](C[C@@H]3CNC(=S)N31)c1ccccc1C2 [compound 8] , please look it up.
Outgoing: 251

Incoming: Lab note: need IC50 with human cloned 5-HT2C receptor, expressed in CHO cells (Homo sapiens) for entry Fc1ccc2c(c1)[C@@H]1[C@H](C[C@H]3CNC(=S)N31)c1ccccc1C2 [compound 3] , please look it up.
Outgoing: 240

Incoming: Lab note: need IC50 with human cloned 5-HT2C receptor, expressed in CHO cells (Homo sapiens) for entry CN(C)C[C@H]1C[C@@H]2c3ccccc3Cc3ccc(F)cc3[C@H]2S1 [compound 23] , please look it up.
Outgoing: 229

Incoming: Lab note: need IC50 with human cloned 5-HT2C receptor, expressed in CHO cells (Homo sapiens) for entry OCCN1CCN(C[C@H]2C[C@@H]3c4ccccc4Cc4ccc(F)cc4[C@H]3N2)CC1 [43a] , please look it up.
Outgoing: 407

Incoming: Lab note: need IC50 with human cloned 5-HT2C receptor, expressed in CHO cells (Homo sapiens) for entry O=C1NC[C@@H]2C[C@@H]3c4ccccc4Cc4ccc(F)cc4[C@H]3N12 [compound 15] , please look it up.
Outgoing: 2340

Incoming: Lab note: need IC50 with human cloned 5-HT2C receptor, expressed in CHO cells (Homo sapiens) for entry CNC[C@H]1CC[C@@H]2c3ccccc3Cc3ccc(F)cc3[C@H]2O1 [compound 46] , please look it up.
Outgoing: 5.89

Incoming: Lab note: need IC50 with human cloned 5-HT2C receptor, expressed in CHO cells (Homo sapiens) for entry CN(C)CC1CO[C@H]2c3cc(F)ccc3Cc3ccccc3[C@@H]12 (mixture of isomers) [compound 48] , please look it up.
Outgoing: 3020

Incoming: Lab note: need IC50 with human cloned 5-HT2C receptor, expressed in CHO cells (Homo sapiens) for entry CNC[C@H]1C[C@@H]2c3ccccc3Cc3ccc(F)cc3[C@H]2N1C=O [compound 38] , please look it up.
Outgoing: 186

Incoming: Lab note: need IC50 with human cloned 5-HT2C receptor, expressed in CHO cells (Homo sapiens) for entry OCCN1CCN(C[C@H]2C[C@@H]3c4ccccc4Oc4ccc(F)cc4[C@H]3N2)CC1 [compound 19] , please look it up.
Outgoing: 4270

Incoming: Lab note: need IC50 with human cloned 5-HT2C receptor, expressed in CHO cells (Homo sapiens) for entry CN(C)[C@@H]1CO[C@H]2c3cc(F)ccc3Cc3ccccc3[C@H]2C1 [compound 32] , please look it up.
Outgoing: 132

Incoming: Lab note: need IC50 with human cloned 5-HT2C receptor, expressed in CHO cells (Homo sapiens) for entry CN[C@@H]1CO[C@@H]2c3cc(F)ccc3Cc3ccccc3[C@H]2C1 (relative stereo) [compound 35] , please look it up.
Outgoing: 2630

Incoming: Lab note: need IC50 with human cloned 5-HT2C receptor, expressed in CHO cells (Homo sapiens) for entry OC1CCN(C[C@H]2C[C@@H]3c4ccccc4Oc4ccc(F)cc4[C@H]3N2)C1 (some centres unmarked) [compound 20] , please look it up.
Outgoing: 110

###

- experimental_target: NET (Rattus norvegicus, UniProt Q9WTR4)
- Construct: Cortex from rat brain was collected and homogenised; from tissue; host or cells: rat brain cortex membranes
- Sequence (Q9WTR4 1-597): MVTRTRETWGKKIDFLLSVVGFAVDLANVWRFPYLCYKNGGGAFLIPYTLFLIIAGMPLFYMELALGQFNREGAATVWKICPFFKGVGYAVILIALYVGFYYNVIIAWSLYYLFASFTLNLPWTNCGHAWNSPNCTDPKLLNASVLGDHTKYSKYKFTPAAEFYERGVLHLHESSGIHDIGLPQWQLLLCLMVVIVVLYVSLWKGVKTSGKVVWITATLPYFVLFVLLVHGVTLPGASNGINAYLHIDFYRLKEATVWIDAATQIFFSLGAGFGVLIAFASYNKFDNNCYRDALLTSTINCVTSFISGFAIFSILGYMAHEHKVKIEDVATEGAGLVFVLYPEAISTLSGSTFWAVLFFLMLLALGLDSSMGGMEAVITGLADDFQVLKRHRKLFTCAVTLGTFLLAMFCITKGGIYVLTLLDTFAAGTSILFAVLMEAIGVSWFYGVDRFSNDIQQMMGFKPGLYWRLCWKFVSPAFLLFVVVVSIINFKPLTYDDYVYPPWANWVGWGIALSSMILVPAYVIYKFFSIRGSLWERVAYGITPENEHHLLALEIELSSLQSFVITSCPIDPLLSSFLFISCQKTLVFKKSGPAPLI
- procedure_summary: In vitro determination of NET reuptake inhibition ([3H]Nixosetine binding, rat brain cortex membranes)
Quick rule for you: IC50 under 100 nM gets Satisfied, anything else gets Not satisfied.

Incoming: Consider the compound OCCN1CCN(C[C@H]2C[C@@H]3c4ccccc4Cc4ccc(F)cc4[C@H]3N2)CC1 [43a] . Is its IC50 strictly less than 100 nM?
Outgoing: Not satisfied

Incoming: Consider the compound `CN(C)[C@@H]1CO[C@H]2c3cc(F)ccc3Cc3ccccc3[C@H]2C1` . Is its IC50 strictly less than 100 nM?
Outgoing: Satisfied

Incoming: Consider the compound CN(C)CC1CO[C@@H]2c3cc(F)ccc3Cc3ccccc3[C@@H]12 (mixture of isomers) . Is its IC50 strictly less than 100 nM?
Outgoing: Satisfied

Incoming: Consider the compound `CN(C)C[C@H]1C[C@@H]2c3ccccc3Cc3ccc(F)cc3[C@H]2[S@+]1[O-]` . Is its IC50 strictly less than 100 nM?
Outgoing: Not satisfied

Incoming: Consider the compound `CN(C)C[C@@H]1C[C@@H]2c3ccccc3Cc3ccc(F)cc3[C@H]2[S@+]1[O-]` . Is its IC50 strictly less than 100 nM?
Outgoing: Not satisfied

Incoming: Consider the compound `CN(C)C[C@H]1C[C@@H]2c3ccccc3Cc3ccc(F)cc3[C@H]2S1` . Is its IC50 strictly less than 100 nM?
Outgoing: Satisfied

Incoming: Consider the compound CN[C@@H]1CO[C@@H]2c3cc(F)ccc3Cc3ccccc3[C@H]2C1 (relative stereo) . Is its IC50 strictly less than 100 nM?
Outgoing: Not satisfied

Incoming: Consider the compound `CSC1=NC[C@H]2C[C@@H]3c4ccccc4Cc4ccc(F)cc4[C@H]3N12` . Is its IC50 strictly less than 100 nM?
Outgoing: Not satisfied

###

- experimental_target: human Dopamine D2L receptor (Homo sapiens, UniProt P14416)
- Construct: expressed in transfected cells; host or cells: CHO cells (frozen membranes)
- Sequence (P14416 whole entry): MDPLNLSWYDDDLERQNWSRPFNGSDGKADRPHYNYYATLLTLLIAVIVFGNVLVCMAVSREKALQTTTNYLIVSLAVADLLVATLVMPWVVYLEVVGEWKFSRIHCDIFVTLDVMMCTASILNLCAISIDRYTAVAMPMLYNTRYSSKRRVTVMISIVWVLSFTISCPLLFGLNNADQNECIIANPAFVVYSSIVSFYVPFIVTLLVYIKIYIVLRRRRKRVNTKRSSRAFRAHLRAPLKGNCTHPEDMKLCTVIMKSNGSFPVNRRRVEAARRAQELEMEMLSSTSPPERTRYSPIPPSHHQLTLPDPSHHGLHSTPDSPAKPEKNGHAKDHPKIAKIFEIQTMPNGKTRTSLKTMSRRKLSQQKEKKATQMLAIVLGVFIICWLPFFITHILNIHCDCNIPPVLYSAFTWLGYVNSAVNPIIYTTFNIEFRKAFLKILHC
- procedure_summary: In vitro binding affinity for human D2L receptor ([3H]Spiperone)
readout_kind: IC50 (nM)
Give a bare numeral; the unit nM is implied.

Incoming: Value lookup for IC50; key = CN1CCN2[C@H](C[C@@H]3c4ccccc4Cc4ccc(F)cc4[C@H]32)C1 [14a]
Outgoing: 1.55

###

- experimental_target: human Dopamine D2L receptor (Homo sapiens, UniProt P14416)
- Construct: expressed in transfected cells; host or cells: CHO cells (frozen membranes)
- procedure_summary: In vitro binding affinity for human D2L receptor ([3H]Spiperone)
- experimental_conditions: human D2L receptor-transfected CHO cell membranes, [3H]Spiperone; read-out: h-D2L (converted)
Quick rule for you: IC50 under 800 nM gets criterion met, anything else gets criterion not met.

Incoming: Consider the compound `CN1C[C@H]2C[C@@H]3c4ccccc4Cc4ccc(F)cc4[C@H]3N2C1=O` . Is its IC50 strictly less than 800 nM?
Outgoing: criterion not met

Incoming: Consider the compound `CN(C)C[C@H]1C[C@@H]2c3ccccc3Cc3ccc(F)cc3[C@H]2N1C` . Is its IC50 strictly less than 800 nM?
Outgoing: criterion met

Incoming: Consider the compound `OCCN1CCN(C[C@H]2C[C@@H]3c4ccccc4Oc4ccc(F)cc4[C@H]3N2)CC1` . Is its IC50 strictly less than 800 nM?
Outgoing: criterion met

Incoming: Consider the compound `CNC[C@H]1CC[C@@H]2c3ccccc3Cc3ccc(F)cc3[C@H]2O1` . Is its IC50 strictly less than 800 nM?
Outgoing: criterion not met

Incoming: Consider the compound OC1CCN(C[C@H]2C[C@@H]3c4ccccc4Oc4ccc(F)cc4[C@H]3N2)C1 (some centres unmarked) . Is its IC50 strictly less than 800 nM?
Outgoing: criterion met

Incoming: Consider the compound `CSC1=NC[C@H]2C[C@@H]3c4ccccc4Cc4ccc(F)cc4[C@H]3N12` . Is its IC50 strictly less than 800 nM?
Outgoing: criterion not met

Incoming: Consider the compound `O=C1CNC[C@H]2C[C@@H]3c4ccccc4Cc4ccc(F)cc4[C@H]3N12` . Is its IC50 strictly less than 800 nM?
Outgoing: criterion not met

Incoming: Consider the compound `CN(C)C[C@@H]1C[C@@H]2c3ccccc3Cc3ccc(F)cc3[C@H]2[S@@+]1[O-]` . Is its IC50 strictly less than 800 nM?
Outgoing: criterion not met

###

Would you mind telling me the reported IC50 of each entry?
- experimental_target: human Dopamine D2L receptor (Homo sapiens)
- Construct: expressed in transfected cells; host or cells: CHO cells (frozen membranes)
- procedure_summary: In vitro binding affinity for human D2L receptor ([3H]Spiperone)
- experimental_conditions: human D2L receptor-transfected CHO cell membranes, [3H]Spiperone; read-out: h-D2L (converted)
- Protocol: Frozen membranes of human Dopamine D2L receptor-transfected CHO cells were thawed, briefly homogenised using an Ultra-Turrax T25 homogeniser and diluted in Tris-HCl assay buffer containing NaCl, CaCl2, MgCl2, KCl (50, 120, 2, 1, and 5 mM respectively, adjusted to pH 7.7 with HCl) to an appropriate protein concentration optimised for specific and non-specific binding. […] Percentage specific bound and competition binding curves were calculated using S-Plus software (Insightful).

Incoming: Value lookup for IC50; key = `CNC[C@H]1C[C@@H]2c3ccccc3Cc3ccc(F)cc3[C@H]2N1C=O`
Outgoing: 7080 nM

Incoming: Value lookup for IC50; key = `CN(C)C[C@H]1C[C@@H]2c3ccccc3Oc3ccc(F)cc3[C@H]2N1`
Outgoing: 2340 nM

Incoming: Value lookup for IC50; key = `Fc1ccc2c(c1)[C@@H]1[C@H](C[C@H]3CNC(=S)N31)c1ccccc1C2`
Outgoing: > 1000 nM

Incoming: Value lookup for IC50; key = `CN(C)[C@@H]1CO[C@H]2c3cc(F)ccc3Cc3ccccc3[C@H]2C1`
Outgoing: > 1000 nM

Incoming: Value lookup for IC50; key = `Fc1ccc2c(c1)[C@@H]1[C@H](C[C@@H]3CNC(=S)N31)c1ccccc1C2`
Outgoing: > 10000 nM

Incoming: Value lookup for IC50; key = `CN1CC(=O)N2[C@@H](C[C@@H]3c4ccccc4Cc4ccc(F)cc4[C@H]32)C1`
Outgoing: > 1000 nM

Incoming: Value lookup for IC50; key = CN(C)C[C@H]1C[C@@H]2c3ccccc3Cc3ccc(F)cc3[C@H]2N1 [37a]
Outgoing: 355 nM

Incoming: Value lookup for IC50; key = `CN(C)C[C@H]1C[C@@H]2c3ccccc3Cc3ccc(F)cc3[C@H]2N1CCO`
Outgoing: > 1000 nM

Incoming: Value lookup for IC50; key = `CN1C[C@@H]2C[C@@H]3c4ccccc4Cc4ccc(F)cc4[C@H]3N2C1=O`
Outgoing: > 10000 nM

Incoming: Value lookup for IC50; key = `COCCN1[C@@H](CN(C)C)C[C@@H]2c3ccccc3Cc3ccc(F)cc3[C@H]21`
Outgoing: > 1000 nM

Incoming: Value lookup for IC50; key = `COCC(=O)N1[C@@H](CN(C)C)C[C@@H]2c3ccccc3Cc3ccc(F)cc3[C@H]21`
Outgoing: > 1000 nM

Incoming: Value lookup for IC50; key = `COC(=O)N1[C@@H](CN(C)C)CC[C@@H]2c3ccccc3Cc3ccc(F)cc3[C@H]21`
Outgoing: > 10000 nM

Incoming: Value lookup for IC50; key = `N[C@@H]1CO[C@H]2c3cc(F)ccc3Cc3ccccc3[C@H]2C1`
Outgoing: > 1000 nM

Incoming: Value lookup for IC50; key = `CN(C)C[C@H]1C[C@@H]2c3ccccc3Cc3ccc(F)cc3[C@H]2S1`
Outgoing: 5010 nM

Incoming: Value lookup for IC50; key = CC(=O)N1[C@@H](CN(C)C)C[C@@H]2c3ccccc3Cc3ccc(F)cc3[C@H]21 [36b]
Outgoing: > 1000 nM

Incoming: Value lookup for IC50; key = `O=C1NC[C@@H]2C[C@@H]3c4ccccc4Cc4ccc(F)cc4[C@H]3N12`
Outgoing: > 10000 nM

Incoming: Value lookup for IC50; key = `CN1C[C@@H]2C[C@@H]3c4ccccc4Cc4ccc(F)cc4[C@H]3N2C1`
Outgoing: 2240 nM
